- Test system: Mus musculus
- Protocol notes: Anticonvulsant activity in Swiss albino mouse assessed as protection against pentylenetetrazole-induced seizures at 10 mg/kg administered 1 hr before PTZ challenge relative to control
- Format: functional
Parameter measured: Activity (%)
Dear colleague, please return just the value in %, with no unit written.

Some solved entries appear below for comparison.
{"columns": ["Smiles str", "Activity [%]"],
 "data": [
  ["COc1ccc(/C=C/c2nc3ccccc3n3cnnc23)cc1", 0],
  ["Cc1nnc2c(/C=C/c3ccc(F)cc3)nc3ccccc3n12", 100],
  ["COc1ccc2cc(/C=C/c3nc4ccccc4n4nnnc34)ccc2c1", 0],
  ["Cc1nnc2c(/C=C/c3cccc([N+](=O)[O-])c3)nc3ccccc3n12", 0],
  ["Fc1ccc(/C=C/c2nc3ccccc3n3c(-c4ccc(-c5ccccc5)cc4)nnc23)cc1", 0]
]}

What value of Activity has been reported for the following compound? "O=[N+]([O-])c1cccc(/C=C/c2nc3ccccc3n3nnnc23)c1"
0

What value of Activity has been reported for the following compound? "COc1ccc(/C=C/c2nc3ccccc3n3c(C)nnc23)cc1"
0

What value of Activity has been reported for the following compound? "COc1ccc(/C=C/c2nc3ccccc3n3c(-c4ccc(F)cc4)nnc23)cc1"
100

---

- System: Mus musculus
- Protocol notes: Anticonvulsant activity in Swiss albino mouse assessed as protection against pentylenetetrazole-induced seizures at 10 mg/kg administered 1 hr before PTZ challenge relative to control
- Type: functional
Reported Activity values for a set of compounds

Some solved entries appear below for comparison.
{"columns": ["Smiles str", "Activity"],
 "data": [
  ["COc1ccc(/C=C/c2nc3ccccc3n3nnnc23)cc1", "0%"],
  ["Fc1ccc(/C=C/c2nc3ccccc3n3c(C(F)(F)F)nnc23)cc1", "100%"],
  ["CCOc1ccc(-c2nnc3c(/C=C/c4ccc(Cl)cc4)nc4ccccc4n23)cc1O", "0%"],
  ["Fc1ccc(/C=C/c2nc3ccccc3n3cnnc23)cc1", "100%"],
  ["Fc1ccc(/C=C/c2nc3ccccc3n3nnnc23)cc1", "100%"],
  ["O=[N+]([O-])c1cccc(/C=C/c2nc3ccccc3n3cnnc23)c1", "0%"]
]}

Then this compound:
What value of Activity has been reported for the following compound? "COc1ccc(/C=C/c2nc3ccccc3n3c(C(F)(F)F)nnc23)cc1"
100%

---

Reported Activity values for a set of compounds
- Tested on: Mus musculus
- Protocol notes: Anticonvulsant activity in Swiss albino mouse assessed as protection against pentylenetetrazole-induced seizures at 10 mg/kg administered 1 hr before PTZ challenge relative to control
- Type: functional
Dear colleague, please return just the value in %, with no unit written.

Some solved entries appear below for comparison.
{"columns": ["Smiles str", "Tested system", "Activity, %"],
 "data": [
  ["COc1ccc(-c2nnc3c(/C=C/c4ccc(Cl)cc4)nc4ccccc4n23)cc1", "Mus musculus", 0],
  ["C(=C\\c1nc2ccccc2n2nnnc12)/c1ccccc1", "Mus musculus", 100]
]}

Then this compound:
What value of Activity has been reported for the following compound? "COc1ccc2cc(/C=C/c3nc4ccccc4n4c(C(F)(F)F)nnc34)ccc2c1"
0
